- System: MS2 coat protein
- protocol.text: apparent KD of MS2 coat protein; designed switch direction (-1 OFF switch, 1 ON switch): -1; higher = weaker reporter binding
- conditions: input ligand: FMN 200 uM
Answer not satisfied if apparent KD of MS2 coat protein is under 300 nM, and satisfied if it is 300 nM or more.

UGAUCAGACCGAGGAUAUACAUGGAGGACGCACGUGAGUGCGUCCACUACAUGAGGAUCACCCAUGUAGAAGGCGGUCUGAUCU [JL ENG2 1.92] (Eterna round: R96, puzzle: Exclusion NG 2)	satisfied

Determine whether this sequence has apparent KD of MS2 coat protein no lower than 300 nM: GUAUAACAUGUAGGAUAUGCAUGGCAAAGCUAUGCAGAAGGACAUGAGGAUCACCCAUGUAAUAGCGUCUGCGUACAGAUGCAA [Mat - Exclusion NG 1 - Mod of JL - D92] (Eterna round: R96, puzzle: Exclusion NG 1)
not satisfied

Is the recorded value of apparent KD of MS2 coat protein equal to or greater than 300 nM for this sequence? UGCUGACGAGGAUAUACAUGAGGAUCACCCAUGUUGGUCAAGCGACUUCGGUCGCAAUGUAGAAGGCGUCAGCA [E3/8-A5] (Eterna round: R97, puzzle: Exclusion 3)
not satisfied

Does the reported apparent KD of MS2 coat protein for GAUCAACAUGAGGAUCACCCAUGUUAGGAUAUGUCCACGUGGCAUAGGACCACGUGUGGCAGAAGGAGCGUUAA [Eternabot (L2) Solution 52] (Eterna round: R97, puzzle: Exclusion 1) fall at or above the 300 nM mark?
not satisfied

Entry UGUUGUCGCGCAGGAUAUGUAUGAGGAUCACCCAUUAAUAAAUUUUAACCACGAGGAUCACCCGUGUAGAAGGGCGCGACAACA [pwkr exNG2 2xF5 1xFMN.17] (Eterna round: R96, puzzle: Exclusion NG 2) : is its apparent KD of MS2 coat protein no less than 300 nM?
not satisfied

---

Reported apparent KD of K4 kissing-loop reporter by item:
- Test system: K4 kissing-loop RNA reporter;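 also: bound reporter read as fluorescence of individual clusters on recovered sequencing chips by microscopy, with normalized cluster intensities fitted with a binding model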
- protocol.text: apparent KD of K4 kissing-loop reporter; higher = weaker reporter binding
- conditions: Eterna round: R107; input ligand: FMN 200 uM
Write the value in nM as a bare number.

Answer with reported apparent KD of K4 kissing-loop reporter of CCCGUGGGUUUGAGAGGGCUUGUGGGAAGUAAGGAUAUUUAGGGAGAAAGAAGGUACUAUAGAAUAUAGUGAUGUUAUAUAUGGG [#06 K4 FMN A Same State]
238

Item UCAAACGAUGGAAGGAGCGCUCGUCAGUCCUGCGAGUGAUGUUCGUGGGUAAAUAGUCGCGAGCAGGUAGGUCGCCAUCUUAAGC [Bisodi] : provide apparent KD of K4 kissing-loop reporter
135

Please give the documented apparent KD of K4 kissing-loop reporter of UGCACGGGCUCGGCCGCCACUCCCGCGGGUCGCAAGGUCCGCUACUGAGUGAUGUUCGGUUGGAGGAGGACCGGGAGCCCGUGCA [#2 Exclusion - Tryptophan B Attempt #27 (HarryS)]
131

Specify apparent KD of K4 kissing-loop reporter for UGCCGGGCUGUACGUUACUUAAAUCGCGAUACCAGCGAUACAAUCCGCCCUUGGCAGCGCAGUGAUGUUGCGCGGUCAUUACGGG [theeternabot_exclusion_KL_Theo_A_27] and stop.
100

Quickly give me recorded apparent KD of K4 kissing-loop reporter for GUGCGUAAGUGAUGUUUACGUCAGCUCCGCAAGGAUAUCCUGAUUAGGAGAAGGUGCGGGAACUAAAGACGCUCGUUCUAGCAGG [theeternabot_exclusion_KL_FMN_A_33]
146
